# method.notes: NCI Yeast Anticancer Drug Screen. Data for the mlh1 rad18 strain (AID 175)
# condition.details: S. cerevisiae mlh1 rad18 strain growth inhibition; at 50.0 µM
Compounds without any hit were thinned out: in the full panel of roughly 79,000, 15% have a hit. Activity calls are given as the source filed them. Cut-off read from the data, not from the text of the source: active = growth inhibition above about 70%; inactive = the rest.
Parameter call: string, one of active, inactive

(Q) Which outcome was entered for the compound `CCCCSCc1nc2nc(Cl)c(Cl)nc2[nH]1` in this test?
(A) inactive

(Q) Which outcome was entered for the compound `O=C1C=C(Nc2ccccc2)c2ccc(S(=O)(=O)O)cc2C1=O` in this test?
(A) inactive

(Q) Which outcome was entered for the compound `CCOC(=O)C(=O)Nc1c(N(CC)CC)n2ccccc2nc1=O` in this test?
(A) inactive

(Q) Which outcome was entered for the compound CC1/C(=N\Nc2ccc([N+](=O)[O-])cc2[N+](=O)[O-])CCC2C1(C)CCC1C2(C)CCC2(C)C3CC(C)(C)CCC3(C)CCC12C (stereo unspecified) in this test?
(A) inactive

(Q) Which outcome was entered for the compound O=S1(=O)CC(O)C(Br)C1 (stereo unspecified) in this test?
(A) inactive

(Q) Which outcome was entered for the compound `CSc1nc(SC)c(Cl)c(C(Cl)Cl)n1` in this test?
(A) active
